Recorded logD values for a group of molecules are listed next.
experiment: method code SF-AS, from DOI: 10.1002/qsar.19880070104; conditions: pH 7.4
metric-name: logD

{"columns": ["chemical-string", "recorded-number"],
 "data": [
  ["Cc1cccc(C)c1OC(=O)OCc1cccc(CN2CCOCC2)c1", 3.47],
  ["Cc1cccc(C)c1OCc1ccc(CN2CCOCC2)cc1", 3.76],
  ["Cc1cccc(C)c1OC(=O)c1ccc(CN2CCOCC2)cc1", 3.92],
  ["Cc1cccc(C)c1OC(=O)NCc1ccccc1CN1CCOCC1", 3.54],
  ["Cc1cccc(C)c1OC(=O)NCc1ccc(CN2CCOCC2)cc1", 2.7],
  ["Cc1cccc(C)c1NC(=O)OCc1cccc(CN2CCOCC2)c1", 1.85],
  ["Cc1cccc(C)c1OCc1cccc(CN2CCOCC2)c1", 3.74],
  ["Cc1cccc(C)c1OC(=O)c1ccccc1CN1CCOCC1", 3.48],
  ["Cc1cccc(C)c1NC(=O)OCc1ccc(CN2CCOCC2)cc1", 2.2],
  ["Cc1cccc(C)c1NC(=O)c1ccccc1CN1CCOCC1", 2.46],
  ["Cc1cccc(C)c1NC(=O)OCc1ccccc1CN1CCOCC1", 2.8],
  ["Cc1cccc(C)c1OC(=O)NCc1cccc(CN2CCOCC2)c1", 2.91],
  ["Cc1cccc(C)c1OC(=O)OCc1ccc(CN2CCOCC2)cc1", 3.34],
  ["Cc1cccc(C)c1OC(=O)c1cccc(CN2CCOCC2)c1", 3.91]
]}
